B1: S100A14 (parent)
chain: KIANLGSCNDSKLEFRSFWELIGE

variants of: B1; assay: protein stability index of a GFP-peptide fusion (GPS, HEK-293T) (PSI 1-6); higher = more stable; settings: c terminus: a fixed tail appended;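 also: lentivirally expressed fusions sorted by FACS into six bins by GFP to DsRed ratio, PSI derived from sequencing read proportions per bin multiplied by bin number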

{"input.sequence": "KIRNLGSCNDSKLEFRSFWELIGE [A3R]", "protein stability index": 1.33}
{"input.sequence": "KIANLGSPNDSKLEFRSFWELIGE [C8P]", "protein stability index": 1.79}
{"input.sequence": "KIANLGSCNDSKLEFRSFWELKGE [I22K]", "protein stability index": 2.32}
{"input.sequence": "KIANLGSCNDSCLEFRSFWELIGE [K12C]", "protein stability index": 2.01}
{"input.sequence": "KIANLGSCNDTKLEFRSFWELIGE [S11T]", "protein stability index": 1.56}
{"input.sequence": "KIANLGSCNDSPLEFRSFWELIGE [K12P]", "protein stability index": 1.95}
{"input.sequence": "KIANLGSCNDSKLEFRSFWELISE [G23S]", "protein stability index": 1.87}
{"input.sequence": "KIANLNSCNDSKLEFRSFWELIGE [G6N]", "protein stability index": 2.94}
{"input.sequence": "KIWNLGSCNDSKLEFRSFWELIGE [A3W]", "protein stability index": 2.28}
{"input.sequence": "KIANLGSCNDSKFEFRSFWELIGE [L13F]", "protein stability index": 2.21}
{"input.sequence": "KIANLGSCNDSKLEFRSFWELIME [G23M]", "protein stability index": 2.25}
{"input.sequence": "KIANLGSCNDSKLPFRSFWELIGE [E14P]", "protein stability index": 1.61}
{"input.sequence": "KIANLGYCNDSKLEFRSFWELIGE [S7Y]", "protein stability index": 1.83}
{"input.sequence": "KIANLGSCNDSVLEFRSFWELIGE [K12V]", "protein stability index": 2.47}
{"input.sequence": "KIANLGSCNDSKLEFRSIWELIGE [F18I]", "protein stability index": 1.85}
{"input.sequence": "KIANLGSCNDSKLEFRCFWELIGE [S17C]", "protein stability index": 2.16}
{"input.sequence": "KIANLGSCNDSKLEFRSFWEFIGE [L21F]", "protein stability index": 2.16}
{"input.sequence": "CIANLGSCNDSKLEFRSFWELIGE [K1C]", "protein stability index": 1.92}
{"input.sequence": "KIANLGSCNDSKLEFRSFWELEGE [I22E]", "protein stability index": 3.19}
{"input.sequence": "KIANLGSCIDSKLEFRSFWELIGE [N9I]", "protein stability index": 1.69}
{"input.sequence": "KIATLGSCNDSKLEFRSFWELIGE [N4T]", "protein stability index": 1.7}
{"input.sequence": "KIANLGSCNDSKLEWRSFWELIGE [F15W]", "protein stability index": 2.75}
{"input.sequence": "KIANLGSCNDSKLEFRSFMELIGE [W19M]", "protein stability index": 1.79}
{"input.sequence": "KIANLGSCNDSKLEFFSFWELIGE [R16F]", "protein stability index": 1.42}
{"input.sequence": "KIANLGVCNDSKLEFRSFWELIGE [S7V]", "protein stability index": 2.58}
{"input.sequence": "KIANLVSCNDSKLEFRSFWELIGE [G6V]", "protein stability index": 2.51}
{"input.sequence": "KIANLGSCNDSKLEFRNFWELIGE [S17N]", "protein stability index": 1.5}
{"input.sequence": "KIANLGSCNDSKLEFRPFWELIGE [S17P]", "protein stability index": 1.65}
{"input.sequence": "KIANLGSCNDSKLEFRSQWELIGE [F18Q]", "protein stability index": 1.98}
{"input.sequence": "KIANLGSCNDSKLEFRSFWELIGA [E24A]", "protein stability index": 2.15}
{"input.sequence": "KIANLGSCNDSKLEFRSFWELFGE [I22F]", "protein stability index": 2.95}
{"input.sequence": "KIANLGSCNDRKLEFRSFWELIGE [S11R]", "protein stability index": 2}
{"input.sequence": "KIANLGSCNDSKLEFRSHWELIGE [F18H]", "protein stability index": 2.82}
{"input.sequence": "KIANLGSCNDSKLEPRSFWELIGE [F15P]", "protein stability index": 2.42}
{"input.sequence": "KIANLGSCNDSKLEFRSFWALIGE [E20A]", "protein stability index": 1.64}
{"input.sequence": "KIANLGSCNDSKDEFRSFWELIGE [L13D]", "protein stability index": 2.17}
{"input.sequence": "KGANLGSCNDSKLEFRSFWELIGE [I2G]", "protein stability index": 2}
{"input.sequence": "KIANLGSCNDSKLEFRQFWELIGE [S17Q]", "protein stability index": 2.75}
{"input.sequence": "KIANLGSKNDSKLEFRSFWELIGE [C8K]", "protein stability index": 1.55}
{"input.sequence": "KIANLGSCFDSKLEFRSFWELIGE [N9F]", "protein stability index": 1.86}
{"input.sequence": "KIANLGSCNDSKLEFRSFWELHGE [I22H]", "protein stability index": 1.9}
{"input.sequence": "KIANLGSCNDYKLEFRSFWELIGE [S11Y]", "protein stability index": 1.59}
{"input.sequence": "KCANLGSCNDSKLEFRSFWELIGE [I2C]", "protein stability index": 1.22}
{"input.sequence": "KIANLGSCNDSKLEFRSFWELIQE [G23Q]", "protein stability index": 2.19}
{"input.sequence": "KIANLGSCNDSKLEFRSEWELIGE [F18E]", "protein stability index": 2.66}
{"input.sequence": "KIANLGSCNDSKLEFRSFWELICE [G23C]", "protein stability index": 1.73}
